test system: Vero E6 infected with SARS-CoV-2; test: inhibition of SARS-CoV-2 cytopathic effect; higher = more antiviral protection, active = above 15; details: 833.33 nM; 48 h
Measured Property: inhibition of SARS-CoV-2 cytopathic effect (%)
Express the result in % but write the number alone.

{"columns": ["Compound", "Unit Label", "Measurement"],
 "data": [
  ["Cc1cccc(NC(=O)CN2CCC(c3ccccn3)CC2)c1", "%", 0]
]}

// inhibition of SARS-CoV-2 cytopathic effect value for CCCCCCCCCC(=O)OC1(c2ccc(Cl)cc2)CCN(CCCC(=O)c2ccc(F)cc2)CC1 [haloperidol-decanoate] : -0.9

// inhibition of SARS-CoV-2 cytopathic effect lookup, compound = "O=C1c2ccccc2C(Cc2ccncc2)(Cc2ccncc2)c2ccccc21" , result: -2.88

Lab note: CCOC(=O)c1ccc(OC(=O)CCCCCNC(=N)N)cc1 [gabexate] gave inhibition of SARS-CoV-2 cytopathic effect of 3.6

Note to self: inhibition of SARS-CoV-2 cytopathic effect recorded for O=C(/C=C/c1cccc(S(=O)(=O)Nc2ccccc2)c1)NO [belinostat] was -13.7

The reported value for O=C1C=CC[C@@H]2[C@H]3CCCN4CCC[C@@H](CN12)[C@@H]34 [sophocarpine] in terms of inhibition of SARS-CoV-2 cytopathic effect is -12.3

Query O=c1cc(-c2ccc(O)cc2)oc2cc(O)cc(O)c12 [apigenin] yields inhibition of SARS-CoV-2 cytopathic effect of 0.85

For this compound ( C[N+](C)(CCOc1ccccc1)Cc1ccccc1 [bephenium-hydroxynaphthoate] ), measured inhibition of SARS-CoV-2 cytopathic effect is 0.22

Documented inhibition of SARS-CoV-2 cytopathic effect of O=C(O)c1ccc(S(=O)(=O)N(Cl)Cl)cc1 [halazone] : -4.46

----------
tested on: Vero E6 infected with SARS-CoV-2; test: morphology score (similarity to uninfected cells); higher = more like uninfected cells; settings: 24 h
Measured Property: morphology score
# respond with the number and nothing more

Answered cases to consult:
{"columns": ["Molecule", "Measured Property", "Measurement"],
 "data": [
  ["O=C(CCBr)N1CC[N+]2(CC1)CC[N+]1(CCN(C(=O)CCBr)CC1)CC2 [spirobromin] (10 µM)", "morphology score", -0.0585],
  ["COc1ccccc1C(=O)Nc1cc2c(cc1N1CCCC1)n(C)c(=O)n2C (10 µM)", "morphology score", 0.0131]
]}

morphology score recorded for this molecule, Cc1ccc(NC(=O)c2ccc(CN3CC[C@H](N(C)C)C3)c(C(F)(F)F)c2)cc1Nc1nccc(-c2cncnc2)n1 [bafetinib] (0.833333 µM) , is 0.358

molecule CC(C)NCC(O)COc1cccc2[nH]ccc12 (stereo unspecified) [pindolol] (10 µM) , morphology score observed: 0.0938

----------
test system: Vero E6 infected with SARS-CoV-2; test: SARS-CoV-2 infection rate relative to infected DMSO; higher = more infection, active = 60 or less; conditions: 24 h
Measured Property: SARS-CoV-2 infection rate (%)
# number only, unit % dropped from output

{"columns": ["Compound", "SARS-CoV-2 infection rate [%]"],
 "data": [
  ["c1ccc2sc(N3CCN(Cc4ccc5c(c4)OCO5)CC3)nc2c1 [2-[1-(4-piperonyl)piperazinyl]benzothiazole] (10 µM)", 102],
  ["Cc1c(Cl)c(C)[n+]([O-])c(Cl)c1-c1noc(-c2cc(O)c(O)c([N+](=O)[O-])c2)n1 [opicapone] (10 µM)", 102],
  ["CC(=O)c1cnc2ccc(-c3cc(Cl)c(O)c(Cl)c3)nc2c1N[C@H]1CC[C@H](CN(C)C)CC1 (0.833333 µM)", 96],
  ["Ic1cc(-c2ccccc2)ncn1 [4-iodo-6-phenylpyrimidine] (10 µM)", 81.5],
  ["CC1(C)C(=O)N(c2ccc(C#N)c(C(F)(F)F)c2)C(=O)N1CCCCO (10 µM)", 100],
  ["CNC(=O)c1ccc2c(c1)CCO[C@H]2CCN1CCN(c2ccc(C(N)=O)cc2)CC1 (10 µM)", 106]
]}

SARS-CoV-2 infection rate reading for Cc1ncc(C[n+]2csc(CCOP(=O)(O)OP(=O)(O)O)c2C)c(N)n1 [thiamine-pyrophosphate] (10 µM) : 105

SARS-CoV-2 infection rate measured on Nc1nc(O)c2nc(Br)n([C@@H]3O[C@@H]4COP(=O)(O)O[C@H]4[C@H]3O)c2n1 [8-bromo-cGMP] (10 µM) = 97

Lookup result for Nc1ccc(-c2nc3ccc(-c4nc5ccc(N)cc5[nH]4)cc3[nH]2)cc1 (10 µM) ; measured SARS-CoV-2 infection rate: 108

Measured SARS-CoV-2 infection rate of Cc1cccc(Cc2c[nH]cn2)c1C [detomidine] (10 µM) : 116

The value of SARS-CoV-2 infection rate measured for the compound CC1(C)[C@@H](O)CC[C@]2(C)[C@H]3C(=O)C=C4[C@@H]5C[C@@](C)(C(=O)O)CC[C@]5(C)CC[C@@]4(C)[C@]3(C)CC[C@@H]12 [enoxolone] (10 µM) turned out to be 110

This collection of values is drawn from the supplement of paper PMC13380429.
